- Tested on: SU-DHL-6 (B-Cell Non-Hodgkin's Lymphoma)
- test name: combination Emax (second highest fraction inhibited in the dose matrix, 72 h); higher = more inhibition; extreme values may be limits of the assay
Please respond with reported combination Emax for every item in the list.
Enter a number only.

For the record CCN(CCO)CCCOc1ccc2c(Nc3cc(CC(=O)Nc4cccc(F)c4)[nH]n3)ncnc2c1 [AZD2811] + O=C(c1cc(Cc2n[nH]c(=O)c3ccccc23)ccc1F)N1CCN(C(=O)C2CC2)CC1 [Olaparib] (first compound max 1 µM, 7x7, partner max 10 µM) , what value of combination Emax is listed for SU-DHL-6 (B-Cell Non-Hodgkin's Lymphoma)?
0.365

For the record COc1cc2c(cc1OCCCCCOc1cc3c(cc1OC)C(=O)N1C=C(C)C[C@H]1C=N3)N=C[C@@H]1CC(C)=CN1C2=O [SG3199] + O=C(c1cc(Cc2n[nH]c(=O)c3ccccc23)ccc1F)N1CCN(C(=O)C2CC2)CC1 [Olaparib] (first compound max 0.001 µM, 7x7, partner max 10 µM) , what value of combination Emax is listed for SU-DHL-6 (B-Cell Non-Hodgkin's Lymphoma)?
0.171

For the record CC1(C)CCC(CN2CCN(c3ccc(C(=O)NS(=O)(=O)c4ccc(NCC5CCOCC5)c([N+](=O)[O-])c4)c(Oc4cnc5[nH]ccc5c4)c3)CC2)=C(c2ccc(Cl)cc2)C1 [Venetoclax] + C[C@@H](Nc1cc(F)cc(F)c1)c1cc(C(=O)N(C)C)cc2c(=O)cc(N3CCOCC3)oc12 [AZD8186] (first compound max 1 µM, 7x7, partner max 3 µM) , what value of combination Emax is listed for SU-DHL-6 (B-Cell Non-Hodgkin's Lymphoma)?
1
